Tested on: A498
Assay: Anticancer activity against human A498 cells assessed as cell growth at 80 ug/mL by sulforhodamine B assay
Assay type: functional
Conditions: read-out: Activity
observation-type: growth at 80 µg/mL (%)
Give your result in % as a bare value.

>  <molecule>
COc1cccc2c1C(=O)c1c(O)c3c(c(O)c1C2=O)C[C@@](O)(C(=O)CO)C[C@@H]3O[C@H]1C[C@H](N)[C@H](O)[C@H](C)O1

>  <system>
A498

>  <observation-type>
growth at 80 µg/mL

>  <measured-result>
-66.9

$$$$
>  <molecule>
C(=C\C1CC(c2ccc3[nH]c4c(c3c2)CCCC4)=NN1)/c1ccccc1 (centres undefined)

>  <system>
A498

>  <observation-type>
growth at 80 µg/mL

>  <measured-result>
6

$$$$
>  <molecule>
Clc1ccccc1C1CC(c2ccc3[nH]c4c(c3c2)CCCC4)=NN1 (centres undefined)

>  <system>
A498

>  <observation-type>
growth at 80 µg/mL

>  <measured-result>
16.2

$$$$
>  <molecule>
Cc1ccc(C2CC(c3ccc4[nH]c5c(c4c3)CCCC5)=NN2)cc1 (centres undefined)

>  <system>
A498

>  <observation-type>
growth at 80 µg/mL

>  <measured-result>
4.6

$$$$
>  <molecule>
Oc1ccccc1C1CC(c2ccc3[nH]c4c(c3c2)CCCC4)=NN1 (centres undefined)

>  <system>
A498

>  <observation-type>
growth at 80 µg/mL

>  <measured-result>
16.5

$$$$
>  <molecule>
Oc1ccc(C2CC(c3ccc4[nH]c5c(c4c3)CCCC5)=NN2)cc1 (centres undefined)

>  <system>
A498

>  <observation-type>
growth at 80 µg/mL

>  <measured-result>
3.9

$$$$
>  <molecule>
Clc1ccc(C2CC(c3ccc4[nH]c5c(c4c3)CCCC5)=NN2)cc1 (centres undefined)

>  <system>
A498

>  <observation-type>
growth at 80 µg/mL

>  <measured-result>
31.7

$$$$
>  <molecule>
CC1CC(c2ccc3[nH]c4c(c3c2)CCCC4)=NN1 (centres undefined)

>  <system>
A498

>  <observation-type>
growth at 80 µg/mL

>  <measured-result>
4

$$$$

Here is the next item to consider.
Request - read-out growth at 80 µg/mL | tested on A498 | molecule O=[N+]([O-])c1ccc(C2CC(c3ccc4[nH]c5c(c4c3)CCCC5)=NN2)cc1 (centres undefined)
4.1
